# System: MDA-MB-435 melanoma
# Measurement description: NCI-60 one-dose screen, 48 h (100 = growth as untreated, 0 = no growth, -100 = all killed)
# Study conditions: 10 µM unless noted
This is part of a sample that, as a whole, favours compounds with a hit. Of some 83,000 tested, about 20% had one in any assay.
Parameter measured: growth (%)
Answers are plain numbers, in %.

Record excerpt, results attached:
                                   molecule  recorded_number
0  COc1ccc(/C=N\NC(=O)c2cnn(CC(O)c3ccccc3)c2N)cc1OCc1ccc(Cl)cc1 (configuration not stated)             78.7
1  C/C(=N\NC(=O)Nc1ccccc1)c1nnn(-c2ccc([N+](=O)[O-])cc2)c1C              104
2  O=C(/C=C/c1ccc(Cl)c(Cl)c1)Nc1ncc(Cc2ccc(Cl)c(Cl)c2)s1             26.9

Provide growth for all items below, preserving their order.
1. O=C1c2ccccc2C23C(=C(c4cncnc4)c4ccccc42)CCCN13 (configuration not stated)
2. C/C(=N/N)c1nnn(-c2ccc(Br)cc2)c1C
3. CCC(=C(c1ccc(OCCN2CCCCCC2)cc1)c1ccc(OCCN2CCCCCC2)cc1)c1ccc(Cl)cc1
4. CCCCSC1=C(Cl)CN(c2ccc(Cl)cc2)C1=O

Response line:
1: 94.6; 2: 102; 3: -85.8; 4: 107

----------
# Tested on: NCI-H460 lung
# Measurement description: NCI-60 one-dose screen, 48 h (100 = growth as untreated, 0 = no growth, -100 = all killed)
# Study conditions: 10 µM unless noted
Compounds without any hit were thinned out: in the full panel of roughly 83,000, 20% have a hit.
Use growth to assign classes; range list: bin A: < 10%; bin B: ≥ 10% and < 30%; bin C: ≥ 30%

Prompt line: Pick a category. Item: O=C(CCCCCCNC(=O)C(O)(O)C(F)(F)F)Nc1ncc(-c2ccccc2)s1
Response line: bin A

----------
For each entry below, report its growth value.
# Tested on: MCF7 breast
# Measurement description: NCI-60 one-dose screen, 48 h (100 = growth as untreated, 0 = no growth, -100 = all killed)
# Study conditions: 10 µM unless noted
About 83,000 compounds went through this panel and 20% of them were active in at least one assay; those are over-represented in the sample as a whole.
Give bare numbers, in %.

Provide growth for all items below, preserving their order.
1. CCc1nnc(NC(=O)c2cc(-c3ccc(Cl)cc3Cl)oc2C)s1
2. CC1=C(SCC(=O)OCCCCCC(C)C)C(=O)c2ccccc2C1=O

Response line:
1. 84.9
2. 72.1

Provide growth for all items below, preserving their order.
1. COc1ccc(C2c3[nH]c4ccc(Cl)cc4c3CCN2c2oc(CO)nc2C#N)cc1 (stereo unspecified)
2. Oc1[nH]c2ccc(Cl)cc2c1N=Nc1nc(N=Nc2c(O)[nH]c3ccc(Cl)cc23)nc(N2CCCCC2)n1

Response line:
[32, 51.7]

Provide growth for all items below, preserving their order.
1. Brc1cccc(-c2cc(-c3ccc4c(c3)OC=CO4)[nH]n2)c1
2. COc1cc(C(=O)c2cc(C(C)=O)c3cccc(C)n23)cc(OC)c1OC

Response line:
10.1
20.3

----------
# Test system: EKVX NSCLC
# Measurement description: NCI-60 one-dose screen, 48 h (100 = growth as untreated, 0 = no growth, -100 = all killed)
# Study conditions: 10 µM unless noted
Compounds without any hit were thinned out: in the full panel of roughly 83,000, 20% have a hit. Active and inactive are the calls of the source. The calls were made as follows: active = growth percent below 10; inactive = the rest.
Parameter measured: growth

Record excerpt, results attached:
Molecule	growth
Cn1c2nc3ccccc3c-2cc2ccccc21	42.5% (inactive)
C#CCN(C)CCCOc1ccc(NCc2ccc(C(=O)NO)cc2)cc1Cl	35.5% (inactive)
CC1(C)CC[C@]23CC[C@]4(C)[C@H](CC[C@@H]5[C@@]6(C)CC[C@H](NCO)C(C)(C)[C@@H]6CC[C@]54C)[C@H]2[C@H]1OC3	93.9% (inactive)
Cc1ccccc1N1CCN(C2=C(Cl)C(=O)c3ncccc3C2=O)CC1	95.4% (inactive)
COC(=O)N1CCN(CCNCc2ccc(NC(=O)c3ccc(C)c(C#Cc4cnc5cccnn45)c3)cc2C(F)(F)F)CC1	48.9% (inactive)
COc1ccc(/C=N/N=C(/c2ccccc2)c2ccc3nc(-c4ccc(Cl)cc4)[nH]c3c2)cc1	91.9% (inactive)
CCn1c2ccc(/C=N/N(C)S(=O)(=O)CCN(C)C)cc2c2cc(/C=N/N(C)S(=O)(=O)CCN(C)C)ccc21	94.7% (inactive)
Cc1ccc(C)c(NC2=C(Cl)C(=O)c3nc(C)ccc3C2=O)c1	1.21% (active)
COc1ccc(/C=N/NC(=O)c2c(N)nn(C)c2Nc2ccccc2)cc1Oc1ccccc1	88.1% (inactive)
CCOC(=O)c1cccnc1Nc1ccc(NC(=O)Nc2ccc(Cl)c(C(F)(F)F)c2)cc1	40.6% (inactive)

Provide growth for all items below, preserving their order.
1. CN1CCN(CC#CCn2c3c(c4ccccc42)C[C@]2(C)[C@H]4CC=C5[C@@H]6CC(C)(C)CC[C@]6(C(=O)N6CCOCC6)CC[C@@]5(C)[C@]4(C)CC[C@H]2C3(C)C)CC1
2. O=C1[C@H]2Cc3c([nH]c4ccccc34)[C@H](c3ccc(Br)cc3)N2C(=O)CN1C1CCN(CC2CCCCC2)CC1

Response line:
1: 75.2% (inactive); 2: 83.8% (inactive)

----------
# System: CCRF-CEM leukemia
# Measurement description: NCI-60 one-dose screen, 48 h (100 = growth as untreated, 0 = no growth, -100 = all killed)
# Study conditions: 10 µM unless noted
Compounds without any hit were thinned out: in the full panel of roughly 83,000, 20% have a hit.
For each entry below, report its growth value.
One number for each entry, in %.

Record excerpt, results attached:
                                   molecule  value_unit  recorded_number
0  COc1ccc2sc(NC(=O)CCCCCCNC(=O)C(O)(O)C(F)(F)F)nc2c1           %             24.6
1  O=C(CSc1nc2ccccc2c(=O)n1CCc1ccccc1)Nc1ccc(S(=O)(=O)Nc2ccc(Cl)nn2)cc1           %             99.2
2  CCCCCCOC(=O)c1cc(-c2ccc(F)cc2)nc2ccccc12           %             95.8

Provide growth for all items below, preserving their order.
1. CCCCSC1=C(Cl)CN(c2ccc(Cl)cc2)C1=O
2. O=[N+]([O-])c1ccc(NC(=S)NNC(=S)Nc2ccc(Br)cc2)cc1
3. CCc1cc(OC(=O)N2CCN(CCC(C)(COC(C)(C)C)COC(C)(C)C)CC2)ccc1Nc1cc(-c2ccc(-n3cccn3)cc2)[nH]n1
4. CCC(=C(c1ccc(OCCN(C)C)cc1)c1ccc(OCCN(C)C)cc1)c1ccc(Cl)cc1

Response line:
1: 89.9; 2: 89.1; 3: 56.7; 4: -50.8

Prompt line: Entry C[C@H](Nc1ncnc2ccc(-c3cnc(Cl)c(NS(C)(=O)=O)c3)cc12)c1ccccc1 : reported growth = ?
Response line: 7.38

----------
# System: U251 CNS
# Measurement description: NCI-60 one-dose screen, 48 h (100 = growth as untreated, 0 = no growth, -100 = all killed)
# Study conditions: 10 µM unless noted
Compounds without any hit were thinned out: in the full panel of roughly 83,000, 20% have a hit.
Use 30% as the dividing line for growth, with the line itself on the YES side and lower values as NO.

>>> df
                                   compound  system_name  group_label
0  CC(=O)OCCCCN1C=C/C(=C\C(=O)n2ccc3ccccc32)c2ccccc21     U251 CNS          YES
1         Cn1c(SCC(=O)c2ccco2)nc2ccccc2c1=O     U251 CNS          YES
2  CN1CCN(c2ccc(Nc3nc(NCCNS(=O)(=O)c4ccc(Cl)cc4)c4sccc4n3)cc2)CC1     U251 CNS          YES
3  CN1CCN(c2ccc(Nc3nc(NCCCNS(=O)(=O)c4cccc5ccccc45)c4sccc4n3)cc2)CC1     U251 CNS           NO
4  CCC(=C(c1ccc(OCCN2CCCCCC2)cc1)c1ccc(OCCN2CCCCCC2)cc1)c1ccc(Cl)cc1     U251 CNS           NO
5  Cc1ccc(C(=O)CSc2nnc(-c3ccc(-c4ccc(Cl)cc4)nc3C)o2)cc1     U251 CNS          YES
6  CC(O)c1cccc(/C(N)=N/C(N)=N/c2nc3ccccc3s2)c1 (stereo not given)     U251 CNS          YES
7  Cc1ccc2c(n1)C(=O)C(Cl)=C(Nc1ccc(C#N)cc1)C2=O     U251 CNS          YES

Prompt line: Does the compound CCN(CC)CCOc1ccc(C(=C(C)c2ccc(OC)cc2)c2ccc(OCCN(CC)CC)cc2)cc1 have recorded growth that is 30% or more?
Response line: NO

Prompt line: Can you check CSc1ccc(/C(=N/N=C(N)N)c2ccc(F)cc2)cc1 next?
Response line: NO

Prompt line: Can you check N#Cc1c(-c2cccs2)c(C#N)c(=O)n(Cc2nc3ccccc3[nH]2)c1N next?
Response line: YES

Prompt line: Can you check N#Cc1c(-c2cccs2)cc(-c2cnccn2)nc1SCC(=O)N/N=C/c1ccc(Cl)cc1 next?
Response line: YES

Prompt line: Can you check CC(Nc1c(C#N)cnc2ccc(-c3cncc(-c4n[nH]c(=O)o4)c3)cc12)c1ccccc1 (stereo not given) next?
Response line: NO

Prompt line: Can you check O=C1Nc2ccccc2/C1=N\c1nnc(-c2ccccc2)o1 next?
Response line: YES

Prompt line: Can you check CN1CCC[C@]2(C)[C@H]3CC[C@@H]4[C@@H]5[C@H]6OC[C@@]5(CCC6(C)C)CC[C@@]4(C)[C@]3(C)CC[C@H]2C1(C)C next?
Response line: NO
